System: adjuvant-associated biological themes in LV, SP, LN
Details: LV, ID
QUANTITY NAME: GO annotation: regulation of apoptotic signaling pathway (Term: apoptosis)

COMPOUND	RECORDED RESULT
CC(O)COC[C@H]1O[C@@H]2O[C@H]3[C@H](O)[C@@H](O)[C@@H](O[C@H]4[C@H](O)[C@@H](O)[C@@H](O[C@H]5[C@H](O)[C@@H](O)[C@@H](O[C@H]6[C@H](O)[C@@H](O)[C@@H](O[C@H]7[C@H](O)[C@@H](O)[C@@H](O[C@H]8[C@H](O)[C@@H](O)[C@@H](O[C@H]1[C@H](O)[C@H]2O)O[C@@H]8COCC(C)O)O[C@@H]7COCC(C)O)O[C@@H]6COCC(C)O)O[C@@H]5COCC(C)O)O[C@@H]4COCC(C)O)O[C@@H]3COCC(C)O (stereo partly drawn) [bCD, Hydroxypropyl-beta-cyclodextrin]	0

====

System: adjuvant-associated biological themes in LV, SP, LN
Details: LV, ID
The entries below come with measured GO annotation: inflammatory response (Term: inflammatory response) values attached.
QUANTITY NAME: GO annotation: inflammatory response (Term: inflammatory response)

MOLECULE	RECORDED RESULT
Nc1nc2c(ncn2[C@@H]2O[C@@H]3COP(=O)(O)O[C@H]4[C@@H](O)[C@H](n5cnc6c(N)ncnc65)O[C@@H]4COP(=O)(O)O[C@@H]2[C@@H]3O)c(=O)[nH]1 [cGAMP, Cyclic [G(2′,5′)pA(3′,5′)p]]	11.5
CC(O)COC[C@H]1O[C@@H]2O[C@H]3[C@H](O)[C@@H](O)[C@@H](O[C@H]4[C@H](O)[C@@H](O)[C@@H](O[C@H]5[C@H](O)[C@@H](O)[C@@H](O[C@H]6[C@H](O)[C@@H](O)[C@@H](O[C@H]7[C@H](O)[C@@H](O)[C@@H](O[C@H]8[C@H](O)[C@@H](O)[C@@H](O[C@H]1[C@H](O)[C@H]2O)O[C@@H]8COCC(C)O)O[C@@H]7COCC(C)O)O[C@@H]6COCC(C)O)O[C@@H]5COCC(C)O)O[C@@H]4COCC(C)O)O[C@@H]3COCC(C)O (stereo partly drawn) [bCD, Hydroxypropyl-beta-cyclodextrin]	10.9
Nc1nc2c(ncn2[C@@H]2O[C@@H]3COP(=O)(O)O[C@H]4[C@@H](O)[C@H](n5cnc6c(=O)[nH]c(N)nc65)O[C@@H]4COP(=O)(O)O[C@H]3[C@H]2O)c(=O)[nH]1 [cdiGMP, Cyclic diguanylate monophosphate]	26.1
Cc1ccc2c(=O)c3cccc(CC(=O)O)c3oc2c1C	0

====

Tested on: adjuvant-associated biological themes in LV, SP, LN
Conditions: LV, ID
Below: a set of entries, each annotated with reported GO annotation: positive regulation of leukocyte migration (Term: migration).
QUANTITY NAME: GO annotation: positive regulation of leukocyte migration (Term: migration)

COMPOUND	RECORDED RESULT
CC(O)COC[C@H]1O[C@@H]2O[C@H]3[C@H](O)[C@@H](O)[C@@H](O[C@H]4[C@H](O)[C@@H](O)[C@@H](O[C@H]5[C@H](O)[C@@H](O)[C@@H](O[C@H]6[C@H](O)[C@@H](O)[C@@H](O[C@H]7[C@H](O)[C@@H](O)[C@@H](O[C@H]8[C@H](O)[C@@H](O)[C@@H](O[C@H]1[C@H](O)[C@H]2O)O[C@@H]8COCC(C)O)O[C@@H]7COCC(C)O)O[C@@H]6COCC(C)O)O[C@@H]5COCC(C)O)O[C@@H]4COCC(C)O)O[C@@H]3COCC(C)O (stereo partly drawn) [bCD, Hydroxypropyl-beta-cyclodextrin]	0
Cc1ccc2c(=O)c3cccc(CC(=O)O)c3oc2c1C	0
Nc1nc2c(ncn2[C@@H]2O[C@@H]3COP(=O)(O)O[C@H]4[C@@H](O)[C@H](n5cnc6c(N)ncnc65)O[C@@H]4COP(=O)(O)O[C@@H]2[C@@H]3O)c(=O)[nH]1 [cGAMP, Cyclic [G(2′,5′)pA(3′,5′)p]]	0
Nc1nc2c(ncn2[C@@H]2O[C@@H]3COP(=O)(O)O[C@H]4[C@@H](O)[C@H](n5cnc6c(=O)[nH]c(N)nc65)O[C@@H]4COP(=O)(O)O[C@H]3[C@H]2O)c(=O)[nH]1 [cdiGMP, Cyclic diguanylate monophosphate]	3.33
